- System: LoVo-Dox
- measurement-protocol: SRB colorimetric assay of cell growth and viability, LoVo-Dox
- Format: cell-based, human
- condition-set: 48 hours exposure; read-out: LC50 LOVO-DOX
Where a SMILES comes first, the peptide text is derived from it. Bridges are numbered along the chain shown (N, C = ends). [ ]: non-standard residue; d: D form. The star is where a group is joined. d(aIle) = CC[C@H](C)[C@@H](N)C(=O)O; Hexanoyl(5-Me) = CC(C)CCCC(=O)*; Orn = NCCC[C@H](N)C(=O)O; Dhb = C/C=C(\N)C(=O)O
// CC50 lookup, one value per entry

compound	CC50
C/C=C1\NC(=O)[C@H](Cc2ccccc2)NC(=O)[C@@H](C(C)C)NC(=O)[C@@H]([C@@H](C)CC)NC(=O)[C@H](NC(=O)[C@H](NC(=O)[C@H](CCCN)NC(=O)[C@H]2CCCN2C(=O)[C@H](NC(=O)[C@@H](NC(=O)[C@@H](NC(=O)[C@H](NC(=O)CCCC(C)C)C(C)C)[C@@H](C)O)C(C)C)C(C)C)[C@@H](C)CC)COC(=O)[C@H](C(C)C)NC1=O [Compound 3, [D-Ser^6]-KF] ({Hexanoyl(5-Me)}-[dV]TV[dV][dP][Orn][d(aIle)][dS][d(aIle)][dV]F[Dhb]V; ester 8-C)	637 nM
C/C=C1\NC(=O)[C@H](Cc2ccccc2)NC(=O)[C@@H](C(C)C)NC(=O)[C@@H]([C@@H](C)CC)NC(=O)[C@H](NC(=O)[C@H](NC(=O)[C@H](CCCN)NC(=O)[C@H]2CCCN2C(=O)[C@H](NC(=O)[C@@H](NC(=O)[C@@H](NC(=O)[C@H](NC(=O)CCCC(C)C)C(C)C)[C@@H](C)O)C(C)C)C(C)C)[C@@H](C)CC)[C@H](C)OC(=O)[C@H](C(C)C)NC1=O [Compound 2, [D-Thr^6]-KF]	≥ 6770 nM

###

// GI50 lookup, one value per entry
- Tested on: LoVo-Dox
- measurement-protocol: SRB colorimetric assay of cell growth and viability, LoVo-Dox
- Type: cell-based, human
- condition-set: LOVO-DOX; 48 hours exposure
Where a SMILES comes first, the peptide text is derived from it. Bridges are numbered along the chain shown (N, C = ends). [ ]: non-standard residue; d: D form. The star is where a group is joined. d(aIle) = CC[C@H](C)[C@@H](N)C(=O)O; d(aThr) = C[C@@H](O)[C@@H](N)C(=O)O; hCha = N[C@@H](CCC1CCCCC1)C(=O)O; Hexanoyl(5-Me) = CC(C)CCCC(=O)*; Orn = NCCC[C@H](N)C(=O)O; Dhb = C/C=C(\N)C(=O)O

compound	value-unit	inequality-sign	GI50
C/C=C1\NC(=O)[C@H](CCC2CCCCC2)NC(=O)[C@@H](C(C)C)NC(=O)[C@@H]([C@@H](C)CC)NC(=O)[C@H](NC(=O)[C@H](NC(=O)[C@H](CCCN)NC(=O)[C@H]2CCCN2C(=O)[C@H](NC(=O)[C@@H](NC(=O)[C@@H](NC(=O)[C@H](NC(=O)CCCC(C)C)C(C)C)[C@@H](C)O)C(C)C)C(C)C)[C@@H](C)CC)[C@@H](C)OC(=O)[C@H](C(C)C)NC1=O [Compound 63] ({Hexanoyl(5-Me)}-[dV]TV[dV][dP][Orn][d(aIle)][d(aThr)][d(aIle)][dV][hCha][Dhb]V; ester 8-C)	µM	=	0.13
C/C=C1\NC(=O)[C@H](Cc2ccccc2)NC(=O)[C@@H](C(C)C)NC(=O)[C@@H]([C@@H](C)CC)NC(=O)[C@H](NC(=O)[C@H](NC(=O)[C@H](CCCN)NC(=O)[C@@H]2CCCN2C(=O)[C@H](NC(=O)[C@@H](NC(=O)[C@@H](NC(=O)[C@H](NC(=O)CC[C@@H](C)CC)C(C)C)[C@@H](C)O)C(C)C)C(C)C)[C@@H](C)CC)[C@@H](C)OC(=O)[C@H](C(C)C)NC1=O [Compound 59, [Pro^9, (4S)-MeHex^14]-KF]	µM	≥	6.76

Data origin: patent US20070117743A1
